- experimentNotes: MTT cytotoxicity test, T98G
- Type: cell-based
- testContext: human, T98G cells (glioblastoma), read-out: semitoxic concentration (CC50), T98G
CC50 at 72 h listing for selected compounds.
Please give a number only; it is taken to be in µM.

Report measured CC50 at 72 h; entry is `C/C(Nc1ccc(Br)cc1)=C1\C(=O)C=C2Oc3c(-c4csc(N/N=C/c5ccc(Br)cc5)n4)c(O)c(C)c(O)c3[C@@]2(C)C1=O` 44

Annotate the compound CC(=O)C1=C(O)C=C2Oc3c(-c4csc(N/N=C/c5ccc(Br)cc5)n4)c(O)c(C)c(O)c3[C@@]2(C)C1=O [Compound 4, reference compound] with its measured CC50 at 72 h. 4

====

- experimentalTarget: Tdp1 (Homo sapiens, UniProt Q9NUW8)
- Sequence (Q9NUW8 whole entry): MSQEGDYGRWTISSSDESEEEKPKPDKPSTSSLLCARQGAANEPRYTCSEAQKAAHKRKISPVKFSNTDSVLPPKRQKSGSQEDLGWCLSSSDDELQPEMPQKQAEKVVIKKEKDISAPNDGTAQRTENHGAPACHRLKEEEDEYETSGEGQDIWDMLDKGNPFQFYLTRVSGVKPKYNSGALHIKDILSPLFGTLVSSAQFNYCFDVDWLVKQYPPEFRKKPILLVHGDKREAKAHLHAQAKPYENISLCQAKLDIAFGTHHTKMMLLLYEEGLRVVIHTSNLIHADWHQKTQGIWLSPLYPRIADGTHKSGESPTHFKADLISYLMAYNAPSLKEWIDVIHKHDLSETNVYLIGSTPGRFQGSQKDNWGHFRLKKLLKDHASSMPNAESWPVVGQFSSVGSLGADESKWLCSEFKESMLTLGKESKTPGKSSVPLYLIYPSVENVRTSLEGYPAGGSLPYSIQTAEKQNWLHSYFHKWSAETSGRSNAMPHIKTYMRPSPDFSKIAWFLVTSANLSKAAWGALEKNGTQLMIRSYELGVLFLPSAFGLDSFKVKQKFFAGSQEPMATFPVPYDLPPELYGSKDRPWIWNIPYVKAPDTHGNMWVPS
Readings of pIC50 for the listed compounds
Scale explanation: pIC50 corresponds to minus log10 of a concentration expressed in moles per litre.

{"compound": "C/C(Nc1ccc(Br)cc1)=C1\\C(=O)C=C2Oc3c(-c4csc(N/N=C/c5ccc(Br)cc5)n4)c(O)c(C)c(O)c3[C@@]2(C)C1=O [Compound 8]", "experimentalResult": 5.30}
{"compound": "C/C(NCCCc1cc(C(C)(C)C)c(O)c(C(C)(C)C)c1)=C1\\C(=O)C=C2Oc3c(-c4csc(N/N=C/c5ccc(Br)cc5)n4)c(O)c(C)c(O)c3[C@@]2(C)C1=O [Compound 7]", "experimentalResult": 6.92}
{"compound": "C/C(NCCCc1cc(C(C)(C)C)c(O)c(C(C)(C)C)c1)=C1\\C(=O)C=C2Oc3c(-c4csc(N/N=C/c5ccc(Br)s5)n4)c(O)c(C)c(O)c3[C@@]2(C)C1=O [Compound 5]", "experimentalResult": 6.85}

Please turn your attention to the following entry.
Return value of pIC50 for input CC(=O)C1=C(O)C=C2Oc3c(-c4csc(N/N=C/c5ccc(Br)cc5)n4)c(O)c(C)c(O)c3[C@@]2(C)C1=O [Compound 4, reference compound] , no commentary. 7.52

====

- experimentNotes: MTT cytotoxicity test, HCT-116
- Assay type: cell-based
- testContext: human, HCT-116 cells (colorectal cancer), read-out: semitoxic concentration (CC50), HCT-116
The following compounds are listed with their measured CC50 at 72 h values.

{"compound": "C/C(NCCCc1cc(C(C)(C)C)c(O)c(C(C)(C)C)c1)=C1\\C(=O)C=C2Oc3c(-c4csc(N/N=C/c5ccc(Br)cc5)n4)c(O)c(C)c(O)c3[C@@]2(C)C1=O", "CC50 at 72 h": "> 100 µM"}

Consider the compound CC(=O)C1=C(O)C=C2Oc3c(-c4csc(N/N=C/c5ccc(Br)cc5)n4)c(O)c(C)c(O)c3[C@@]2(C)C1=O [Compound 4, reference compound] and give its recorded CC50 at 72 h. 7 µM

Look up and report measured CC50 at 72 h for this entry: `C/C(NCCCc1cc(C(C)(C)C)c(O)c(C(C)(C)C)c1)=C1\C(=O)C=C2Oc3c(-c4csc(N/N=C/c5ccc(Br)s5)n4)c(O)c(C)c(O)c3[C@@]2(C)C1=O` > 100 µM

====

- experimentNotes: Leukocyte and erythrocyte counts in peripheral blood of mice with Krebs-2 carcinoma
- Format: in vivo
- testContext: 7 50 mg/kg i/g, alone or with Tpc 1 mg/kg i/p
assayEndpoint: Concentration of erythrocytes in peripheral blood (million/µL)
Output spec: scalar in million/µL, unitless text.

Report Concentration of erythrocytes in peripheral blood for `C/C(NCCCc1cc(C(C)(C)C)c(O)c(C(C)(C)C)c1)=C1\C(=O)C=C2Oc3c(-c4csc(N/N=C/c5ccc(Br)cc5)n4)c(O)c(C)c(O)c3[C@@]2(C)C1=O` 7.2
